Overview of recorded z-score for various compounds
Experiment: Plasmodium falciparum growth inhibition, primary screen, strain 3D7, DAPI fluorescence, 100 nL (AID 1184);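 also: parasites grown inside human red blood cells in medium with human serum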
Conditions: P. falciparum 3D7 growth, 3 d, higher = more signal
Answer using only a numeral; do not append any unit.

Guide cases for z-score, answers given:
compound: COC(=O)[C@@]1(Cc2ccc(F)cc2)[C@@H]2C(=CC(=O)[C@H]2CC(=O)C(=O)N2CCCC2)CN1C(=O)c1ccccc1
value_reported: -1.72

compound: COCCOC(=O)N1C(=O)[C@@]2(c3cc(C#CCC(C(=O)OC)C(=O)OC)ccc31)[C@H](C(=O)N1CCc3cc(OC)c(OC)cc3C1)[C@H]1C(=O)O[C@H](c3ccccc3)[C@H](c3ccccc3)N1[C@@H]2c1ccccc1OCCO
value_reported: -2.12

compound: CC[C@@H](O[Si](C#C[Si](C(C)C)(C(C)C)C(C)C)(C(C)C)C(C)C)c1cn([C@H](C)c2ccccc2)nn1
value_reported: -0.38

For the compound shown here, CC[C@H]1C2=C3C(CC[C@H]4C(OCc5ccc(F)cc5C(F)(F)F)OC[C@](C)([C@@H]34)N(C(=O)OC(C)(C)C)C2)C(COC(C)=O)C1COC(C)=O (some centres not stated) , give the reported z-score.
-1.24

Note, next up: `COc1cc(Cc2cc3c(c(-c4ccccc4)n2)[Si](C(C)C)(C(C)C)OC3)cc(OC)c1OC`
-0.822

Record: COc1cc2c(cc1O)C(C)N(Cc1sc3ccccc3c1Cl)CC2 (configuration not stated)
-1.37

Item: COC(=O)C1(CC(C)C)C=C2C(=C(C)C(=O)C2C)CN1 (configuration not stated)
0.51

====

Assay: small-molecule microarray binders of probe aCHRDL2, primary screen, biochemical, biotinylated probe, 635/667 nm fluorescence (AID 1100)
Details: higher = more signal
measured_quantity: composite z-score
Please reply with the number alone, leaving off any unit.

Quick one: composite z-score for `COc1ccc([Si](C)(C)[C@@H]2[C@@H](CC(=O)N3CCC[C@H]3CO)O[C@]3(C(=O)N(Cc4cccc(N5C(=O)c6cccc7cccc5c67)c4)c4ccccc43)[C@H]2C)cc1` ?
0.0325

And then `Cc1ccc(N2C(=O)c3ccccc3[C@@H](C(=O)NCCN3CCOCC3)[C@@H]2c2ccc(CO)cc2)nc1` , what is it?
0.685

Again, but for `COC(=O)[C@@]1(Cc2ccc(OC)cc2)[C@@H]2[C@@H](CC(=O)[C@H]2CC(=O)C(=O)N(C)C)CN1C(=O)c1ccccc1`
1.49

Entry to check: O=C1C2C=CC(C(O)C(c3ccccc3)c3ccccc3)N(Nc3ccccc3F)C2C(=O)N1c1ccccc1 (stereo not given)
0.786

// repeat for `COCCCNC(=O)[C@@]1(c2ccc([N+](=O)[O-])cc2)CC(=O)N(C2CCCCC2)[C@@H]1c1ccc(CO)cc1I` and report
0.64

====

Target: Focal adhesion kinase 1 (Homo sapiens) (UniProt Q05397)
Sequence (Q05397 whole entry, looked up): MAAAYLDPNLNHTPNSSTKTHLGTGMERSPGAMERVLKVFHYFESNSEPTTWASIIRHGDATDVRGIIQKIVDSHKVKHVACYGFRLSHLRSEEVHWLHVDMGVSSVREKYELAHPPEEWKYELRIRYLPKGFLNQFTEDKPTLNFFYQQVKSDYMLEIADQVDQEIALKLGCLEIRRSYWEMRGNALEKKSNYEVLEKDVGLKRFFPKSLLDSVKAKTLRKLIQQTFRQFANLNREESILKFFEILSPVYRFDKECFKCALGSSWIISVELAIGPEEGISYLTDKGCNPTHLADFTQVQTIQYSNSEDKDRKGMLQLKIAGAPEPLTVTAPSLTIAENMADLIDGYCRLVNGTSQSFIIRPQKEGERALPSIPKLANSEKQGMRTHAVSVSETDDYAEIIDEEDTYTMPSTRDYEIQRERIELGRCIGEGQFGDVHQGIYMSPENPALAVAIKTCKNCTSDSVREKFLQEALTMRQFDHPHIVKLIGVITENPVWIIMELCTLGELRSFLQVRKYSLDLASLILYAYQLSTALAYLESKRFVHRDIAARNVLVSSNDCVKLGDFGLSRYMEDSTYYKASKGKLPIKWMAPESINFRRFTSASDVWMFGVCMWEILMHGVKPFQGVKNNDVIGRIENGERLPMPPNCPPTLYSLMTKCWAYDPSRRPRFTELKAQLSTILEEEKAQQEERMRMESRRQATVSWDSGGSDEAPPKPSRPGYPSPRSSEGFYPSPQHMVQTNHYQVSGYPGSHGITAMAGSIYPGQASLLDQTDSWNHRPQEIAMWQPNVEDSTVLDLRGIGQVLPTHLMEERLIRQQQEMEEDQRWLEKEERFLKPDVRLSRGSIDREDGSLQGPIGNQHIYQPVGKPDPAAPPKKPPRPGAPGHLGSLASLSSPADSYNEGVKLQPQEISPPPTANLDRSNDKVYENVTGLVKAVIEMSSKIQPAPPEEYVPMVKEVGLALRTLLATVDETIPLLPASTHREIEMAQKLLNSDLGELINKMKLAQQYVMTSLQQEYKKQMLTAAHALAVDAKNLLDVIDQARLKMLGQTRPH
Experiment: small-molecule microarray binders of FAK, primary screen, biochemical, 635/667 nm fluorescence, BSA, DTT (AID 1130);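 also: composite of spot emission at 667 nm and signal to noise over triplicate slides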
Conditions: PTK2 binding, 635 nm fluorescence, higher = more signal
measured_quantity: composite z-score

For orientation, consider the following solved cases.
smiles_input: COCCOC(=O)N1C(=O)[C@@]2(c3cc(C#CCC(C(=O)OC)C(=O)OC)ccc31)[C@H](C(=O)N1CCc3cc(OC)c(OC)cc3C1)[C@H]1C(=O)O[C@H](c3ccccc3)[C@H](c3ccccc3)N1[C@@H]2c1ccccc1OCCO
tgt: Focal adhesion kinase 1 (Homo sapiens) (UniProt Q05397)
measured_quantity: composite z-score
value_reported: 0.673
//
smiles_input: O=C(c1ccccc1)N1Cc2ccccc2C[C@@]2(N=C(c3ccc(OCCCO)cc3)O[C@H]2c2ccccc2)C1=O
tgt: Focal adhesion kinase 1 (Homo sapiens) (UniProt Q05397)
measured_quantity: composite z-score
value_reported: 1.18
//
smiles_input: COc1ccc(CCNC(=O)[C@@H]2c3ccccc3C(=O)N(Cc3cc(F)cc(C(F)(F)F)c3)[C@H]2c2ccc(CO)cc2)cc1
tgt: Focal adhesion kinase 1 (Homo sapiens) (UniProt Q05397)
measured_quantity: composite z-score
value_reported: 0.137
//
smiles_input: [N-]=[N+]=NCc1ccccc1[C@H]1OC(c2ccc(OCCCO)cc2)=N[C@@]1(Cc1ccccc1N=[N+]=[N-])C(=O)O
tgt: Focal adhesion kinase 1 (Homo sapiens) (UniProt Q05397)
measured_quantity: composite z-score
value_reported: 1.03
//
smiles_input: C=C(CCCC)C(=O)CC[C@H](OC(=O)c1ccccc1-c1ccccc1C(=O)O)c1cccc(OCCO)c1
tgt: Focal adhesion kinase 1 (Homo sapiens) (UniProt Q05397)
measured_quantity: composite z-score
value_reported: -0.194

Query (compound): `COc1ccc([Si](C)(C)[C@H]2[C@H](CC(=O)N3CCC[C@H]3CO)O[C@@]3(C(=O)N(C)c4c(Br)cc(C)cc43)[C@@H]2C)cc1` ; field requested: composite z-score
1.44

====

Assay: inhibitors of hydroxyurea-induced Chk1 phosphorylation, primary screen, imaging, HeLa, phospho-Chk1 nuclear intensity (AID 1187); also: test concentration not given here
Details: hydroxyurea-induced phospho-Chk1 immunofluorescence imaging, higher = more signal
measured_quantity: z-score
Note: the reply should be a number with no unit written.

Here is how some molecules turned out for z-score.
molecule: COCCCNC(=O)[C@]1(Cc2ccccc2CN=[N+]=[N-])N=C(c2ccc(OCCCO)cc2)O[C@@H]1c1ccccc1N=[N+]=[N-]
z-score: -0.601
--
molecule: CCCC=C(CCC)[C@@H](NC(=O)c1ccc(C(=O)OC)cc1)c1ccc(C(=O)OC)cc1
z-score: -0.745

Quick one: z-score for `COC(=O)[C@@]1(Cc2ccc(OC)cc2)[C@H]2c3cc(C(=O)N(C)C)n(Cc4c(CO)[nH]cc(C)c4=O)c3C[C@H]2CN1C(=O)c1ccccc1` ?
0.376

And what about the molecule CCCCCCCCCCC(O)C1C=CC2C(=O)N(C)C(=O)C2N1Nc1ccccc1 (stereo not given) ?
0.135

Likewise for `C=CC[C@H](O)c1ccc(O)c2ccccc12` ?
1.01

====

Assay: S. cerevisiae RM11-1a growth modifiers, primary screen, strain RM11-1a, OD600, basal, 24 h (AID 1177);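 also: cultures grown under basal conditions with no added stressor; test concentration not given here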
Conditions: OD600, 24 h, higher = more signal, called active from +8 up or from −8 down
measured_quantity: z-score
Number only, please.

Known z-score results, listed for orientation:
molecule: COc1ccc([Si](C)(C)[C@H]2[C@H](CC(=O)N(CCO)Cc3ccccc3)O[C@@]3(C(=O)N(Cc4cccc(N5CCCCC5=O)c4)c4ccccc43)[C@@H]2C)cc1
value_reported: 1.45
//
molecule: COc1ccc([Si](C)(C)[C@@H]2[C@@H](CC(=O)N(CCO)Cc3ccccc3)O[C@]3(C(=O)N(Cc4cccc(I)c4)c4ccccc43)[C@H]2C)cc1
value_reported: 2.64
//
molecule: CC(CO)N1C(=O)[C@@H]2[C@H]3C(=O)OCC=C[C@H]3OC23C=CCN(c2ccc4ccccc4c2)C(=O)[C@@H]13 (some centres not stated)
value_reported: -0.405
//
molecule: COc1ccc(C(=O)Nc2ccc(CN3C(=O)[C@@]4(O[C@@H](CC(=O)N(CCO)Cc5ccccc5)[C@H]([Si](C)(C)c5ccc(OC)cc5)[C@H]4C)c4ccccc43)cc2)cc1
value_reported: 0.961
//
molecule: C[C@]1(C(=O)NCC(F)(F)F)c2ccccc2C(=O)N(Cc2cc(C(F)(F)F)cc(C(F)(F)F)c2)[C@H]1c1ccc(CO)cc1
value_reported: 0.507

Value lookup for z-score; key = `COC(=O)[C@H]1N=C(c2ccc(OCCCO)cc2)O[C@H]1c1ccccc1N=[N+]=[N-]`
0.682

What do you get for `COCCCNC(=O)[C@@]1(c2ccc([N+](=O)[O-])cc2)CC(=O)N(C2CCCCC2)[C@@H]1c1ccc(CO)cc1I` ?
-0.251

====

Assay: COS7 lysate on small-molecule microarray, probe aHis, 635 nm (AID 1123);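 also: z-score combines 667nm fluorescence intensity with signal-to-noise per printed compound spot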
Conditions: COS7 cell lysate, fluorescence, higher = more signal
measured_quantity: composite z-score
// return just the number, without any unit appended

compound: CC(C)N1C(=O)[C@@]2(Cc3ccccc31)c1ccccc1C(=O)N(Cc1ccccc1C(F)(F)F)[C@H]2c1ccc(CO)cc1
measured_quantity: composite z-score
value_reported: -0.011
//
compound: COc1ccc(C(=O)Nc2ccc(CN3C(=O)[C@@]4(O[C@@H](CC(=O)N(CCO)Cc5ccccc5)[C@H]([Si](C)(C)c5ccc(OC)cc5)[C@H]4C)c4ccccc43)cc2)cc1
measured_quantity: composite z-score
value_reported: 0.678
//
compound: C#CCN(C(=O)OC(C)(C)C)[C@H](CO)c1ccccc1
measured_quantity: composite z-score
value_reported: 0.125
//
compound: COc1cccc(C)c1NC(=O)O[C@H]1[C@H](OC(=O)Nc2ccccc2)[C@@H](OC(=O)Nc2ccccc2)[C@@H](OC)O[C@@H]1CO
measured_quantity: composite z-score
value_reported: 2.66
//
compound: COc1ccc(NN2C(C(O)c3ccccc3)C=CC3C(=O)N(C4CCCCC4)C(=O)C32)cc1 (configuration not stated)
measured_quantity: composite z-score
value_reported: 2.67

composite z-score for `Cc1ccc(S[C@]2(C(=O)NC(C)C)CC(=O)N(Cc3ccccc3)[C@@H]2c2ccc(CO)cc2)cc1` ?
-0.0367

Same question for `CN(C)CCCC[C@@H]1NC(=O)[C@H]2C[C@@H](C(=O)NCCCCCCNC(=O)CS)[C@@H](c3cccc(OCCO)c3)N2C1=O` please.
1.01
